experimental_details: Selectivity index, ratio of CC50 for cytotoxicity against human MT4 cells to EC50 for antiviral activity against wild type HIV-1 IIIB infected in human MT4 cells
Assay type: toxicity, cell-based
setup_conditions: read-out: Ratio CC50/EC50
Entries and their measured selectivity ratio follow.
test_readout: selectivity ratio

> print(dat)
                               query.smiles       test.readout  reported.result
1  N#C/C=C/c1cc(F)c(Oc2nc(Nc3ccc(C#N)nc3)nc3ccsc23)c(F)c1  selectivity ratio            26500
2  Cc1cc(C#N)cc(C)c1Oc1nc(NC2CCN(c3c(F)cc(N)cc3F)CC2)nc2sccc12  selectivity ratio              168
3  Cc1cc(/C=C/C#N)cc(C)c1Oc1nc(Nc2ccc(C#N)nc2)nc2cc[nH]c12  selectivity ratio                5
4  N#C/C=C/c1cc(F)c(Oc2nc(Nc3ccc(C#N)c(F)c3)nc3ccsc23)c(F)c1  selectivity ratio              878
5  Cc1cc(-c2ccc(F)cc2)cc(C)c1Oc1nc(Nc2ccc(C#N)nc2)nc2ccsc12  selectivity ratio               14

* * *

experimental_details: Selectivity index, ratio of CC50 for cytotoxicity against human MT4 cells to EC50 for antiviral activity against wild type HIV-1 IIIB infected in human MT4 cells
Type: toxicity, cell-based
setup_conditions: read-out: Ratio CC50/EC50
Entries and their measured selectivity ratio follow.
test_readout: selectivity ratio

> print(dat)
                                query.smiles  relation.symbol  reported.result
 1  Cc1cc(C#N)cc(C)c1Oc1nc(NC2CCN(c3ccc([N+](=O)[O-])cc3)CC2)nc2sccc12                >            12100
 2  Cc1cc(/C=C/C#N)cc(C)c1Oc1nc(Nc2ccc(C#N)c(F)c2)nc2cc[nH]c12                =               42
 3  N#C/C=C/c1cc(F)c(Oc2nc(Nc3ccc(C#N)nc3)nc3cc[nH]c23)c(F)c1                =              197
 4  N#C/C=C/c1cc(F)c(Oc2nc(Nc3ccc(C#N)c(F)c3)nc3sccc23)c(F)c1                =             2240
 5  Cc1cc(C#N)cc(C)c1Oc1nc(NC2CCN(c3c(F)cc([N+](=O)[O-])cc3F)CC2)nc2ccsc12                =            12900
 6  Cc1cc(/C=C/C#N)cc(C)c1Oc1nc(NC2CCN(c3ccc(NS(N)(=O)=O)cc3F)CC2)nc2ccsc12                =             2910
 7  Cc1cc(/C=C/C#N)cc(C)c1Oc1nc(NC2CCN(c3c(F)cc(N)cc3F)CC2)nc2ccsc12                =              246
 8  Cc1cc(C#N)cc(C)c1Oc1nc(NC2CCN(c3ccc(NS(N)(=O)=O)cc3F)CC2)nc2ccsc12                =             1080
 9  Cc1cc(C#N)cc(C)c1Oc1nc(NC2CCN(c3c(F)cc(N)cc3F)CC2)nc2ccsc12                =              146
10  N#C/C=C/c1cc(F)c(Oc2nc(Nc3ccc(C#N)c(F)c3)nc3cc[nH]c23)c(F)c1                =              268
11  Cc1cc(/C=C/C#N)cc(C)c1Oc1nc(NC2CCN(c3c(F)cc(NS(N)(=O)=O)cc3F)CC2)nc2ccsc12                =              539
12  N#C/C=C/c1cc(F)c(Oc2nc(Nc3ccc(C#N)nc3)nc3sccc23)c(F)c1                =             1840
13  Cc1cc(C#N)cc(C)c1Oc1nc(NC2CCN(c3ccc(NS(N)(=O)=O)cc3)CC2)nc2sccc12                =             1930
14  Cc1cc(/C=C/C#N)cc(C)c1Oc1nc(NC2CCN(c3ccc(N)cc3F)CC2)nc2sccc12                =              418
15  Cc1cc(/C=C/C#N)cc(C)c1Oc1nc(NC2CCN(c3c(F)cc([N+](=O)[O-])cc3F)CC2)nc2sccc12                >             3260
16  Cc1cc(-c2ccc(F)cc2)cc(C)c1Oc1nc(Nc2ccc(C#N)c(F)c2)nc2sccc12                =               50
17  Cc1cc(/C=C/C#N)cc(C)c1Oc1nc(Nc2ccc(C#N)c(F)c2)nc2c1COC2                =            20600
